Assign cytotoxicity at 70.5 h to each entry below.
# assayRemarks: Human HepG2 cell viability assay in 384 well format
# Type: toxicity, cell-based
# Design: dose 125 nL, time 70.5 hour; concentration not given beside the values
# protocolConditions: HepG2 cells, read-out: Inhibition
The answer is to be given in %; state only the numeric part.

// field: cytotoxicity at 70.5 h; key: Cc1nsc(NC2CCOC3(CCCC3)C2)n1 (stereo unspecified) ; value = -1.21

Field cytotoxicity at 70.5 h (entry Cc1ccc(C2CCCN2Cc2nc(-c3ccco3)no2)cc1 (stereo unspecified) ) reads -1.81

Reported cytotoxicity at 70.5 h of Cn1ncc2c1CN(Cc1cccnc1)CC2COCC1CC1 (stereo unspecified) : -2.46

Measured cytotoxicity at 70.5 h of Cc1ccccc1-n1cc(CN(C)C(=O)CC2C(=O)NCCN2C)cn1 (stereo unspecified) : -2.44

Noted for CC(C)CCN(C(=O)c1cc2c([nH]c1=O)CCCC2=O)C1CC1 : its cytotoxicity at 70.5 h reads -2.36

Briefly, cytotoxicity at 70.5 h measured for Cc1nccc(N2C[C@H](NC(=O)CNS(C)(=O)=O)[C@@H](C3CC3)C2)n1 : -5

* * *

# assayRemarks: Human HepG2 cell viability assay in 384 well format
# Type: toxicity, cell-based
# Set-up: dose 125 nL, time 70.5 hour; concentration not given beside the values
# protocolConditions: HepG2 cells, read-out: Inhibition
assayMetric: cytotoxicity at 70.5 h (%)
Enter your answer as a number in %; do not include the unit.

The compound COCCN1C(=O)CCC12CCCN(Cc1nccs1)CC2 (configuration not stated) showed cytotoxicity at 70.5 h equal to -6.77

Query O=C(c1ccccc1OCC1CC1)N1CCCC1Cn1cccn1 (configuration not stated) yields cytotoxicity at 70.5 h of 17.7

In plain terms, CCOc1ccccc1OCCN(C)Cc1ncnn1CC has a documented cytotoxicity at 70.5 h of -6.09

Kindly note the recorded cytotoxicity at 70.5 h for Cc1cccc(-c2cc(-c3c(C)nn(CCO)c3C)c(C#N)c(N)n2)c1 , which is -11.4

The measured cytotoxicity at 70.5 h associated with Cc1cnc(N2C(=O)CSC2c2ccc(N(C)C)cc2)s1 (configuration not stated) reads -8.63

Per the record, CCc1ccsc1C(=O)N1CCCN(Cc2cnn(CC)c2)CC1 has cytotoxicity at 70.5 h of 7.56

Measured cytotoxicity at 70.5 h, Cc1c(Br)cccc1C(=O)NCC1CCCNC1 (configuration not stated) : 2.2

Input CN(CCc1cccs1)C1CCCN(Cc2noc(C3CC3)n2)C1 (configuration not stated) . Output cytotoxicity at 70.5 h: 8.79

# cytotoxicity at 70.5 h of CC(C)n1ccnc1C1CCN(Cc2ccc(Cl)s2)CC1 = -8.66

Query CC(C)NC(=O)NCCCc1cc(N)n(-c2ccccc2)n1 yields cytotoxicity at 70.5 h of 15.9

Per the record, Cc1ccoc1C(=O)NC1CCN(Cc2csc3c(F)cccc23)CC1 has cytotoxicity at 70.5 h of 18.8

Record CCOCC(=O)N1C[C@@H](O)[C@H](N(C)Cc2ccc(OC)cc2)C1 . Reported cytotoxicity at 70.5 h: -13.7

* * *

Provide the recorded cytotoxicity at 70.5 h for the entries that follow.
# assayRemarks: Human HepG2 cell viability assay in 384 well format
# Format: toxicity, cell-based
# Design: dose 125 nL, time 70.5 hour; concentration not given beside the values
# protocolConditions: HepG2 cells, read-out: Inhibition
Please state the figure in %; there is no need to write the unit.

Lookup result for CN(CCCNC(=O)C1CCc2cn[nH]c2C1)c1ccccc1 (configuration not stated) ; measured cytotoxicity at 70.5 h: -4.99

Entry CC(C(=O)NCCCN1CCOCC1)n1cncn1 (configuration not stated) , cytotoxicity at 70.5 h reported as 6.37

// CN(C)c1nc2c(c(N(C)C)n1)CCN(C(=O)CN1C[C@@H]3CC[C@H]1C3)C2 : cytotoxicity at 70.5 h value = -6.59

Entry under test: Cc1ccc(NCCNC(=O)C2Cc3cc(C)c(C)cc3O2)nn1 (configuration not stated) . Its cytotoxicity at 70.5 h was -2.18

Form: compound = Cc1nc(CN2CCCC(N(C)Cc3nnc(C4CC4)o3)C2)no1 (configuration not stated) ; cytotoxicity at 70.5 h = 13.8

Query Fc1ccc(OCc2noc(CN3CCc4cncnc4C3)n2)cc1 yields cytotoxicity at 70.5 h of -4.28

// cytotoxicity at 70.5 h lookup, compound = Cn1cc(CC2CCN(C(=O)NCCc3cccc(O)c3)C2)cn1 (configuration not stated) , result: -12.6

// cytotoxicity at 70.5 h lookup, compound = COCC(NC(=O)c1cn2ccsc2n1)c1ccnn1C (configuration not stated) , result: 97.2

What the record says about NS(=O)(=O)CCN1CCOC(c2ccc(Cl)cc2)C1 (configuration not stated) : cytotoxicity at 70.5 h is 2.97

Given item CCn1ccnc1CN1CCCN(C(=O)Cn2nc(C)cc2C)CC1 , the value recorded as its cytotoxicity at 70.5 h is -19.3

Just so you know, measured cytotoxicity at 70.5 h for CCn1c(C(=O)N2CCN(C(=O)COC)CC2)cc2ccccc21 came out at 26.3

Please fill in: cytotoxicity at 70.5 h reported for O=C(CCn1cncn1)NCC1CCS(=O)(=O)C1 (configuration not stated) = -12.4

Documented cytotoxicity at 70.5 h of Cc1cc(C)n(CC2CCCCN2C(=O)c2sccc2C#N)n1 (configuration not stated) : 1.28

The compound listed as CCOC(=O)CNC(=O)Cn1c(-c2ccoc2)nc(C)c1C shows cytotoxicity at 70.5 h equal to 3.16

Given item COc1ccc(CN2CCO[C@H]3CN(C(C)=O)CC[C@H]3C2=O)cc1 , the value recorded as its cytotoxicity at 70.5 h is 19.5

get_value(item= Cc1nc(C)n(CC2CCCN(c3ncnc4sccc34)C2)n1 (configuration not stated) , readout=cytotoxicity at 70.5 h) returns 29.9

Query CC(NC(=O)c1ccoc1)C(=O)N(C)Cc1cccc(C(F)(F)F)c1 (configuration not stated) yields cytotoxicity at 70.5 h of 9.42

Lab note: COCc1nc(C(=O)N2CCN(Cc3cc(C)on3)CC2)cs1 gave cytotoxicity at 70.5 h of -5.75

# cytotoxicity at 70.5 h (compound: CCCc1c(C(=O)NC2CCCC2)nnn1-c1ccc(OC)cc1 ) is 16.8

Kindly note the recorded cytotoxicity at 70.5 h for CCCN1CCC(NC(=O)NCCc2nc(CC)c(C)s2)CC1 , which is -1.97

Reported cytotoxicity at 70.5 h ( CCn1c(C2CCN(C(=O)c3ccc4sc(C)nc4c3)CC2)n[nH]c1=O ) = -17.3

Lab note: measured cytotoxicity at 70.5 h of CCCSCC(=O)Nc1ncn(CC(=O)NCc2ccccc2)n1 was -5.44

Input Cn1cc(C(=O)NCCc2ccc(OC3CCCC3)cc2)ccc1=O . Output cytotoxicity at 70.5 h: 1.62

Just so you know, measured cytotoxicity at 70.5 h for CCN(Cc1cccc(Cl)c1)Cc1nc2c(cnn2C)c(=O)[nH]1 came out at -7.7

The value of cytotoxicity at 70.5 h measured for the compound C/C=C(\C)CN1CCCn2nc(CNC(=O)C3CCC3)cc2C1 turned out to be -11.6

The compound identified as c1ccc(-c2nc(CCNCc3ccccn3)co2)cc1 registered its cytotoxicity at 70.5 h at -1.18

Item: Cc1ccc(N2C[C@H]3OCC[C@H]3[C@H](C(=O)NC3CCC3)C2)nn1 | cytotoxicity at 70.5 h: -13

The reported cytotoxicity at 70.5 h of the compound CN(C)Cc1ccnc(C2CCCN2Cc2cc[nH]n2)n1 (configuration not stated) was -1.65

Form: compound = Cc1cc(C(=O)NCCC(=O)N2CCCc3ccccc32)no1 ; cytotoxicity at 70.5 h = -4.18

The recorded cytotoxicity at 70.5 h for CN(CC(=O)c1ccc2[nH]c(=O)[nH]c2c1)Cc1ccc2c(c1)OCO2 is -3.13

Cc1cnn(C2CN(Cc3nc(-c4ccccc4C)no3)C2)c1 has a reported cytotoxicity at 70.5 h of 11

So, c1cnn(C2CN(c3ncnc4[nH]ccc34)C2)c1 ? Its cytotoxicity at 70.5 h was -0.76

Reported cytotoxicity at 70.5 h ( CO[C@@H]1CN(Cc2scnc2C)[C@@H]2CCCO[C@@H]21 ) = -4.62

compound O=C(NC1CC1)N1CCn2c(Cn3cccn3)cnc2C1 , cytotoxicity at 70.5 h observed: -5.68

Entry under test: Cc1ccc2c(c1)CN(C(=O)c1cccnc1)C(CN(C)C)CO2 (configuration not stated) . Its cytotoxicity at 70.5 h was 3.4

Kindly note the recorded cytotoxicity at 70.5 h for COCCN1CCCC1c1nccnc1Nc1nccs1 (configuration not stated) , which is -4.09

Note to self: cytotoxicity at 70.5 h recorded for Cc1cc2ccccc2n1CCC(=O)N1CCC2(CC1)CNC(=O)C2 was 3.32

Reported cytotoxicity at 70.5 h ( O=C(NCc1cnn2cccnc12)c1cccc(CC2CCNCC2)c1 ) = 5.06

Per the records, this compound ( CN(C)C[C@@H]1CN(C2CCN(c3ccc(Cl)cc3)CC2)C[C@@H]1CO ) has cytotoxicity at 70.5 h equal to -10.6

The reported value for CCn1nnc2c1CCN(S(C)(=O)=O)C2COCc1ccccc1 (configuration not stated) in terms of cytotoxicity at 70.5 h is 2.15

Reported cytotoxicity at 70.5 h for CC1CCCN(C(=O)Cn2cc(I)cn2)C1 (configuration not stated) was -3.76

compound CCc1csc(C2CCCN(C(=O)c3ccc4c(c3)OCO4)C2)n1 (configuration not stated) , cytotoxicity at 70.5 h observed: 13.2

So for Cn1ccnc1SCCNC(=O)c1cc(S(N)(=O)=O)ccc1F , the logged cytotoxicity at 70.5 h turned out to be -9.32

// cytotoxicity at 70.5 h value for CC(=O)N(Cc1noc(C)n1)C1CCN(Cc2ncc(C(C)C)o2)C1 (configuration not stated) : 51.4

The recorded cytotoxicity at 70.5 h for entry O=c1cnc2ccccc2n1CCCn1ccnc1 equals -16.2

// CN1C(=O)CC[C@@H]2N(C(=O)CCc3cccnc3)CCCC[C@@]21C : cytotoxicity at 70.5 h value = -1.68

cytotoxicity at 70.5 h reported for this compound Cc1cc(N2CCC3(CCCN(C4CCOCC4)C3=O)C2)ccn1 (configuration not stated) : -4.29
